The values you see were collected from the supplement of paper PMC10307832.

# System: HCC-827
# test-details: relative viability (nuclei count vs DMSO), 5 days (fraction); higher = more cells survive
# condition-info: first compound 0.003162 µM
Label 1 when relative viability < 1; otherwise 0.

Please review the following examples before continuing.
{"columns": ["compound", "experimental-system", "category-label"],
 "data": [
  ["Cc1cn(-c2cc(NC(=O)c3ccc(C)c(Nc4nccc(-c5cccnc5)n4)c3)cc(C(F)(F)F)c2)cn1 [Nilotinib] + CC(=O)Nc1cccc(-n2c(=O)n(C3CC3)c(=O)c3c(Nc4ccc(I)cc4F)n(C)c(=O)c(C)c32)c1 [Trametinib] (partner 0.02 µM)", "HCC-827", 1],
  ["Cc1cn(-c2cc(NC(=O)c3ccc(C)c(Nc4nccc(-c5cccnc5)n4)c3)cc(C(F)(F)F)c2)cn1 [Nilotinib] + NC(=O)Nc1cc(-c2cccc(F)c2)sc1C(=O)N[C@H]1CCCNC1 [AZD7762] (partner 0.2 µM)", "HCC-827", 1],
  ["Cc1cn(-c2cc(NC(=O)c3ccc(C)c(Nc4nccc(-c5cccnc5)n4)c3)cc(C(F)(F)F)c2)cn1 [Nilotinib] + Cc1cc(Nc2cc(N3CCN(C)CC3)nc(Sc3ccc(NC(=O)C4CC4)cc3)n2)n[nH]1 [Tozasertib] (partner 0.1 µM)", "HCC-827", 1]
]}

Now look at this one.
For this compound, is relative viability lower than 1? Cc1cn(-c2cc(NC(=O)c3ccc(C)c(Nc4nccc(-c5cccnc5)n4)c3)cc(C(F)(F)F)c2)cn1 [Nilotinib] + CC1(C)CCC(c2ccc(Cl)cc2)=C(CN2CCN(c3ccc(C(=O)NS(=O)(=O)c4ccc(N[C@H](CCN5CCOCC5)CSc5ccccc5)c(S(=O)(=O)C(F)(F)F)c4)cc3)CC2)C1 [Navitoclax] (partner 0.5 µM)
0

---

# Test system: NCI-H727
# test-details: relative viability (nuclei count vs DMSO), 5 days (fraction); higher = more cells survive
# condition-info: first compound 0.001 µM
For each record, write down the corresponding relative viability.
Give bare numbers.

Reference set (3 entries):
{"columns": ["compound", "relative viability"],
 "data": [
  ["Cc1cn(-c2cc(NC(=O)c3ccc(C)c(Nc4nccc(-c5cccnc5)n4)c3)cc(C(F)(F)F)c2)cn1 [Nilotinib] + CS(=O)(=O)N1CCN(Cc2cc3nc(-c4cccc5[nH]ncc45)nc(N4CCOCC4)c3s2)CC1 [Pictilisib] (partner 1 µM)", 0.382],
  ["Cc1cn(-c2cc(NC(=O)c3ccc(C)c(Nc4nccc(-c5cccnc5)n4)c3)cc(C(F)(F)F)c2)cn1 [Nilotinib] + N=C(N)NC(=N)NCCc1ccccc1 [Phenformin] (partner 250 µM)", 0.579],
  ["Cc1cn(-c2cc(NC(=O)c3ccc(C)c(Nc4nccc(-c5cccnc5)n4)c3)cc(C(F)(F)F)c2)cn1 [Nilotinib] + CCNC(=O)c1noc(-c2cc(C(C)C)c(O)cc2O)c1-c1ccc(CN2CCOCC2)cc1 [Luminespib] (partner 0.01 µM)", 0.349]
]}

Missing value: relative viability, NCI-H727, entry Cc1cn(-c2cc(NC(=O)c3ccc(C)c(Nc4nccc(-c5cccnc5)n4)c3)cc(C(F)(F)F)c2)cn1 [Nilotinib] + CC1(C)CCC(c2ccc(Cl)cc2)=C(CN2CCN(c3ccc(C(=O)NS(=O)(=O)c4ccc(N[C@H](CCN5CCOCC5)CSc5ccccc5)c(S(=O)(=O)C(F)(F)F)c4)cc3)CC2)C1 [Navitoclax] (partner 0.5 µM) . Fill in?
0.478
